- Measurement protocol: UV stability of compounds in toluene (absorbance decay to 80%)
- Format: physicochemical
- Condition description: 1×10^−5 mol/L in toluene, UV LEDs 365 nm & 255 nm, time to 80% absorbance, normalized to comparative compound 2 as 100%
Reported property: Times t80 (%)
Numeric only. Scale: %

Examples with their reported Times t80 follow.
Cc1cccc(C)c1N(c1ccc(C(C)(C)C)cc1)c1cc(N(c2ccc(C(C)(C)C)cc2)c2c(C)cccc2C)c2ccc3c(N(c4ccc(C(C)(C)C)cc4)c4c(C)cccc4C)cc(N(c4ccc(C(C)(C)C)cc4)c4c(C)cccc4C)c4ccc1c2c43 [compound 3] = 212
CCCCCCCCc1ccc(-c2cc(C(C)C)ccc2N(c2cc(F)c(F)c(F)c2)c2cc(N(c3cc(F)c(F)c(F)c3)c3ccc(C(C)C)cc3-c3ccc(CCCCCCCC)cc3)c3ccc4c(N(c5cc(F)c(F)c(F)c5)c5ccc(C(C)C)cc5-c5ccc(CCCCCCCC)cc5)cc(N(c5cc(F)c(F)c(F)c5)c5ccc(C(C)C)cc5-c5ccc(CCCCCCCC)cc5)c5ccc2c3c54)cc1 [compound 13] = 410
CCc1cccc(CC)c1N(c1ccc(C(C)(C)C)cc1)c1cc(N(c2ccc(C(C)(C)C)cc2)c2c(CC)cccc2CC)c2ccc3c(N(c4ccc(C(C)(C)C)cc4)c4c(CC)cccc4CC)cc(N(c4ccc(C(C)(C)C)cc4)c4c(CC)cccc4CC)c4ccc1c2c43 [compound 9] = 279

[in] What value of measured Times t80 is listed for CCCCCCCCc1ccc(-c2cc(OC)ccc2N(c2cc(F)c(F)c(F)c2)c2cc(N(c3cc(F)c(F)c(F)c3)c3ccc(OC)cc3-c3ccc(CCCCCCCC)cc3)c3ccc4c(N(c5cc(F)c(F)c(F)c5)c5ccc(OC)cc5-c5ccc(CCCCCCCC)cc5)cc(N(c5cc(F)c(F)c(F)c5)c5ccc(OC)cc5-c5ccc(CCCCCCCC)cc5)c5ccc2c3c54)cc1 [compound 16] ?
[out] 383

[in] Can you handle CCc1cccc(CC)c1N(c1cc(C(C)(C)C)cc(C(C)(C)C)c1)c1cc(N(c2cc(C(C)(C)C)cc(C(C)(C)C)c2)c2c(CC)cccc2CC)c2ccc3c(N(c4cc(C(C)(C)C)cc(C(C)(C)C)c4)c4c(CC)cccc4CC)cc(N(c4cc(C(C)(C)C)cc(C(C)(C)C)c4)c4c(CC)cccc4CC)c4ccc1c2c43 [compound 8] next?
[out] 261

[in] Can you handle CCCCCCCCc1ccc(N(c2ccc(C(C)C)cc2-c2cc(F)c(F)c(F)c2)c2cc(N(c3ccc(CCCCCCCC)cc3)c3ccc(C(C)C)cc3-c3cc(F)c(F)c(F)c3)c3ccc4c(N(c5ccc(CCCCCCCC)cc5)c5ccc(C(C)C)cc5-c5cc(F)c(F)c(F)c5)cc(N(c5ccc(CCCCCCCC)cc5)c5ccc(C(C)C)cc5-c5cc(F)c(F)c(F)c5)c5ccc2c3c54)cc1 [compound 20] next?
[out] 528

[in] Can you handle Cc1cccc(C)c1N(c1ccccc1)c1cc(N(c2ccccc2)c2c(C)cccc2C)c2ccc3c(N(c4ccccc4)c4c(C)cccc4C)cc(N(c4ccccc4)c4c(C)cccc4C)c4ccc1c2c43 [compound 1] next?
[out] 190

[in] Can you handle Cc1cccc(C)c1N(c1cc(C(C)(C)C)cc(C(C)(C)C)c1)c1cc(N(c2cc(C(C)(C)C)cc(C(C)(C)C)c2)c2c(C)cccc2C)c2ccc3c(N(c4cc(C(C)(C)C)cc(C(C)(C)C)c4)c4c(C)cccc4C)cc(N(c4cc(C(C)(C)C)cc(C(C)(C)C)c4)c4c(C)cccc4C)c4ccc1c2c43 [compound 5] next?
[out] 304

[in] Can you handle CC1CCC(C(C)C)C(Oc2ccc(-c3cc(C(C)C)ccc3N(c3cc(F)c(F)c(F)c3)c3cc(N(c4cc(F)c(F)c(F)c4)c4ccc(C(C)C)cc4-c4ccc(OC5CC(C)CCC5C(C)C)cc4)c4ccc5c(N(c6cc(F)c(F)c(F)c6)c6ccc(C(C)C)cc6-c6ccc(OC7CC(C)CCC7C(C)C)cc6)cc(N(c6cc(F)c(F)c(F)c6)c6ccc(C(C)C)cc6-c6ccc(OC7CC(C)CCC7C(C)C)cc6)c6ccc3c4c65)cc2)C1 (stereo not shown) [compound 15] next?
[out] 440

[in] Can you handle c1ccc(N(c2ccc(-c3ccc(N(c4ccccc4)c4ccc5c(c4)c4ccccc4n5-c4ccccc4)cc3)cc2)c2ccc3c(c2)c2ccccc2n3-c2ccccc2)cc1 [comparative compound 2, reference compound] next?
[out] 100
